Assay: Syringeability of dosing solutions (dripping-syringe method)
Assay type: physicochemical
Conditions: prodrug concentration equivalent to 300 mg/ml florfenicol; Triacetin/benzyl alcohol - 2:1 (vol/vol); free flow of 2 mL at 15° C.
property_name: Syringeability measurement: Dripping time (s)

smiles_str	result_unit	reported_value
CS(=O)(=O)c1ccc([C@@H](OC(=O)OCCOC(=O)O[C@H](c2ccc(S(C)(=O)=O)cc2)[C@@H](CF)NC(=O)C(Cl)Cl)[C@@H](CF)NC(=O)C(Cl)Cl)cc1	s	216
CCOC(=O)O[C@H](c1ccc(S(C)(=O)=O)cc1)[C@@H](CF)NC(=O)C(Cl)Cl	s	128

I: CS(=O)(=O)c1ccc([C@@H](OC(=O)OCc2ccccc2)[C@@H](CF)NC(=O)C(Cl)Cl)cc1
II: CCCCOCCOC(=O)O[C@H](c1ccc(S(C)(=O)=O)cc1)[C@@H](CF)NC(=O)C(Cl)Cl
Q: Lower value for measured Syringeability measurement: Dripping time? Options: I , II // caller expects the label of the chosen entry
A: II
(II: 141 s, I: 204 s)
